- Tested on: KM12
- procedureSummary: NCI tumour cell line growth inhibition, 48 h
Calls of active or inactive are those of the source. Rule as the data show it: active = GI50 up to about 1.1 µM and inactive = higher.
resultType: GI50

The examples below pair each entry with its known result.
Cc1cc(NS(=O)(=O)c2ccc(/N=N/c3c(O)c(C(=O)O)cc4ccccc34)cc2)nc(C)n1	> 100 µM (inactive)
NC(CCSCC(F)(F)F)C(=O)O (stereo not given)	> 100 µM (inactive)
COc1cc(C2c3cc4c(cc3OC(O)C2C)OCO4)cc(OC)c1OC (stereo not given)	0.347 µM (active)
Cc1ccc2c(c1)NC(=O)CCSSCCC(=O)N2	> 100 µM (inactive)

Switching to the query record.
Would you kindly share the measured GI50 for COc1ccc2c(c1)CC1=C(O2)c2ccc(OC)cc2OC1 ? 31 µM (inactive)

---

GI50 reference
- Tested on: UACC-62
- procedureSummary: NCI tumour cell line growth inhibition, 48 h
Activity calls are given as the source filed them. No stated cut-off is given here; in the data, active = GI50 up to about 1.1 µM and inactive = higher.

Solved cases below.
CCOC(CN(C)C(=O)Nc1cccc2ccccc12)OCC	> 10 µM (inactive)
O=C(O)C1CCC(=O)N1C(=O)COc1cc(Cl)c(Cl)cc1Cl (centres undefined)	> 100 µM (inactive)
CN(C)C(=C1c2cc([N+](=O)[O-])ccc2-c2ccc([N+](=O)[O-])cc21)N(C)C	> 100 µM (inactive)

# ---- query compound ----
Need GI50 of COc1ccc2cc(NC(=O)N/N=C\c3ccc(Cl)cc3)ccc2c1 , thanks. 40.3 µM (inactive)

---

- Tested on: HCT-116
- procedureSummary: NCI tumour cell line growth inhibition, 48 h
The source made the active and inactive calls. Rule as the data show it: active = GI50 up to about 1.1 µM and inactive = higher.
resultType: GI50

# GI50 lookup, item CCOc1ccc2nc(NC(=O)/C(CC(=O)CC(C3=C(O)c4ccccc4CC3=O)c3ccccc3)=N\O)sc2c1 (centres undefined) > 100 µM (inactive)

Queued: CC(O)(c1ccc(OCCC[N+](C)(C)C)cc1)C(C)(O)c1ccc(OCCC[N+](C)(C)C)cc1 (centres undefined) > 100 µM (inactive)

Next up: Cc1cccc(C)c1NC(=O)C(C#N)C1=C(Cl)C(=O)c2ccccc2C1=O (centres undefined) 15.4 µM (inactive)

Input CN(C)c1ccc(/C=C2\C[C@H]3[C@@H]4CCc5cc(OCCN6CCCC6)ccc5[C@H]4CC[C@]3(C)[C@H]2O)cc1 2.71 µM (inactive)

---

- Tested on: SK-MEL-28
- procedureSummary: NCI tumour cell line growth inhibition, 48 h
The source made the active and inactive calls. Cut-off read from the data, not from the text of the source: active = GI50 up to about 1.1 µM and inactive = higher.
Reported values of GI50 for individual entries

Solved cases below.
O=C1Nc2ccccc2/C1=N/Nc1ccc([N+](=O)[O-])cc1[N+](=O)[O-]	63 µM (inactive)
O=C1c2ccc3ccccc3c2CCC1N1CCCCC1 (stereo not given)	18.1 µM (inactive)
NC(=O)N/N=C\CC(O)(C(F)(F)Cl)C(F)(F)Cl	> 10 µM (inactive)

Dear colleague, I am looking for the recorded GI50 of the following molecule: Cc1cc(C)nc(NS(=O)(=O)c2ccc(NC(=O)c3cc([N+](=O)[O-])cc([N+](=O)[O-])c3)cc2)n1 99.8 µM (inactive)

// same read-out, input: CC(=O)O[C@@H]1[C@@H](C)[C@]2(CC(c3ccoc3)OC2O)C2CCC3O[C@]3(C)[C@]2(C)[C@@H]1OC(C)=O (stereo not given in full) 25.9 µM (inactive)

Can you check COC(=O)c1cccc(OC)c1C#Cc1c(OC)cccc1OC next? > 100 µM (inactive)

Likewise for O=C(N(C1=CCCC1)N(c1ccccc1)c1ccccc1)C(F)(F)F ? 28.4 µM (inactive)

Record: COc1cc2c3c(c4cc(OC)c(OC)cc4c2cc1OC)[C@H](O)[C@@H]1CCCN1C3 < 0.0284 µM (active)

Likewise for CN1CCN(CCCCNc2cc3c4ccccc4c(NCCCCN4CCN(C)CC4)cc3c3ccccc23)CC1 ? 7.67 µM (inactive)

Record: CC(=O)ON(OC(C)=O)c1ccc(C)cc1 > 100 µM (inactive)

---

- Tested on: Malme-3M
- procedureSummary: NCI tumour cell line growth inhibition, 48 h
Activity calls are given as the source filed them. No stated cut-off is given here; in the data, active = GI50 up to about 1.1 µM and inactive = higher.
Valid outcomes are listed here; reply with one: YES = active, NO = inactive

CN(C)C(=C1c2cc([N+](=O)[O-])ccc2-c2ccc([N+](=O)[O-])cc21)N(C)C	NO
Cn1c2n/c(=N\c3ccc(Cl)cc3)[n+]3ccc4ccccc4c3c-2c([O-])n1-c1ccccc1	NO
O=C(O)[C@H]1NC[C@@H]2ON=C(Br)[C@@H]21	NO
C/C=C1\CNC1C(=O)O (stereo not given)	NO
CC1(C)S[C@@H]2[C@H](NC(=O)/C=C/c3ccccc3)C(=O)N2[C@H]1C(=O)O	NO
COc1cccc(N2C(=O)[C@H]3CC(C)c4c([nH]c5ccccc45)[C@H]3C2=O)c1 (stereo not given in full)	NO

Tell me the assay call for Cc1ccc(C(=O)Nc2ccc(S(=O)(=O)O)c3cc(S(=O)(=O)O)cc(S(=O)(=O)O)c23)cc1N please. NO

Next record, please: CC1CCC23COC(=O)C2C(O)CCC3C1(C)CC(O)c1ccoc1 (stereo not given) NO

Query CC(C)=CCC[C@@H](C)C1=C(O)C(=O)C(C)=C(N[C@H](C)c2ccccc2)C1=O next NO

Would you kindly repeat that for COc1cccc2c1C(=O)c1c(O)c3c(c(O)c1C2=O)C[C@@](O)(C(=O)CO)CC3OC1CC(N(C)CCOCC(OC(C)=O)OC(C)=O)C(O)C(C)O1 (stereo not given in full) ? YES

---

- Tested on: UO-31
- procedureSummary: NCI tumour cell line growth inhibition, 48 h
Active and inactive are the calls of the source. Rule as the data show it: active = GI50 up to about 1.1 µM and inactive = higher.
Select the matching outcome among 1.0 (active), 0.0 (inactive)

Observe how each entry below is paired with its result.
O=C1Nc2c(Cl)cc(Cl)cc2/C1=N/N=C/c1ccco1	0.0
O=C(CC1(O)CCCCC1)OC1CCCC1	0.0
Cc1ccc(NC(=O)S(N)(c2ccc(C)cc2)[N+](=O)[O-])cc1 (configuration not stated)	0.0
C=CCc1ccccc1C1CC2(C(=O)OC)OC1C(C(=O)OC)=C2C(=O)OC (configuration not stated)	0.0
C=CCCCN(C(=O)c1ccccc1)c1ccc(C(=O)OC)o1	0.0
O=c1c(=O)c2cscc2c1=O	0.0
COc1cccc2c1C(=O)c1c(O)c3c(c(O)c1C2=O)C[C@@](O)(C(=O)CO)CC3OC1CC(N(C)CCOCC(OC(C)=O)OC(C)=O)C(O)C(C)O1 (some centres not stated)	1.0
COCOc1ccc(C2(O)Oc3cc(OCOC)ccc3C2C)c(O)c1 (configuration not stated)	0.0
Cc1nc2c(o1)C(=O)c1ccccc1/C2=N/c1ccccn1	0.0
CC1(CCCO)CCCCCC(C)(CCCO)C1=O (configuration not stated)	0.0

Entry CC1(C)C(=O)N=C(N)N1C(=O)OCc1ccccc1 : call = ? 0.0

Now try Cc1cc(NS(=O)(=O)c2ccc(/N=N/c3c(O)c(C(=O)O)cc4ccccc34)cc2)nc(C)n1 . 0.0

---

- Tested on: NCI-H522
- procedureSummary: NCI tumour cell line growth inhibition, 48 h
Activity calls are given as the source filed them. Rule as the data show it: active = GI50 up to about 1.1 µM and inactive = higher.
Give your call using only these classes: active, inactive

Past entries and their recorded results:
COc1cc2c3c(c4cc(OC)c(OC)cc4c2cc1OC)[C@H](O)[C@@H]1CCCN1C3	active
Cc1sc2nc3n(c(=O)c2c1C)N=CN(c1ccc(Cl)cc1)C3	inactive

What did this assay record as the result for COC(=O)C1=C(CO)C2C=CC1C2 (stereo not drawn) ? inactive

---

- System: BT-549
- procedureSummary: NCI tumour cell line growth inhibition, 48 h
Activity calls are given as the source filed them. Rule as the data show it: active = GI50 up to about 1.1 µM and inactive = higher.
# reported GI50; entries follow

CC1=C(C(=O)OCCc2ccc([N+](=O)[O-])cc2)C(c2ccccc2[N+](=O)[O-])C(C(=O)OC(C)C)=C(C)N1 (stereo not given)	2.4 µM (inactive)
COc1cc(OC)c2nccc(NCCCN(C)C)c2c1[N+](=O)[O-]	> 100 µM (inactive)
C=C(Br)C(Cl)(CBr)CCC(Br)C(C)(C)Cl (stereo not given)	> 10 µM (inactive)
O=C(Cn1c2ccc(Br)cc2c2nc3ccccc3nc21)NCc1ccccc1	39.9 µM (inactive)

// lookup GI50 | system=BT-549 | key= COC(=O)C1C(O)CCC2CN3CCc4c([nH]c5cccc(OC)c45)C3CC21 (stereo not given) > 100 µM (inactive)

---

- System: DMS-114
- procedureSummary: NCI tumour cell line growth inhibition, 48 h
Active and inactive are the calls of the source. No stated cut-off is given here; in the data, active = GI50 up to about 1.1 µM and inactive = higher.
resultType: GI50

Example entries begin here.
Cc1ccc(NC(=O)c2nc(S)nc(N)c2-c2ccccc2C)cc1C	> 100 µM (inactive)
Nc1nc(N)c(N=O)c(Nc2ccc(I)cc2)n1	20.7 µM (inactive)
COc1ccc(CCc2cc(OC)c(O)c(OC)c2)cc1	29 µM (inactive)

--- query ---
Sample CC(=O)NNc1nc(C)c(C(=O)/C=C/c2ccccc2Cl)s1 — what was its GI50? > 100 µM (inactive)
